Task for the reader: assign each of the following molecules its reported IC50.
# Test system: pentamidine-resistant L. enriettii LePentR50 promastigotes
# test.protocol: microbe, parasite or virus in culture
# settings: Leishmania enriettii, 72 h, read-out: IC50(μM) of synthetic flavonoid, LePentR50, cytotoxicity of compound alone; 72 hrs
Enter your answer as a number in µM; do not include the unit.

Return the recorded IC50 value; entry: O=c1cc(-c2ccc(OCCOCCOCCOCCOCCOc3ccc(-c4cc(=O)c5c(O)cc(O)cc5o4)cc3)cc2)oc2cc(O)cc(O)c12 70

Supply measured IC50 of O=c1cc(-c2ccc(OCCOCCOCCOCCOCCOCCOc3ccc(-c4cc(=O)c5c(O)cc(O)cc5o4)cc3)cc2)oc2cc(O)cc(O)c12 in your reply. 40

Quick one: give measured IC50 for O=c1cc(-c2ccc(O)cc2)oc2cc(O)cc(O)c12 [Apigenin, reference compound] 55
